System under test: DENV-2 NS5 with DENV-2 NS3 (DENV NS5:DENV NS3) (dengue virus type 2)
Construct: mature NS5 from the genome polyprotein, His6 tag kept; NS3 from the polyprotein, His6 tag cut with thrombin, biotinylated; with Serine protease NS3 (Non-structural protein 3)
Sequence (Q91H74 1476-2093 partner limits assumed): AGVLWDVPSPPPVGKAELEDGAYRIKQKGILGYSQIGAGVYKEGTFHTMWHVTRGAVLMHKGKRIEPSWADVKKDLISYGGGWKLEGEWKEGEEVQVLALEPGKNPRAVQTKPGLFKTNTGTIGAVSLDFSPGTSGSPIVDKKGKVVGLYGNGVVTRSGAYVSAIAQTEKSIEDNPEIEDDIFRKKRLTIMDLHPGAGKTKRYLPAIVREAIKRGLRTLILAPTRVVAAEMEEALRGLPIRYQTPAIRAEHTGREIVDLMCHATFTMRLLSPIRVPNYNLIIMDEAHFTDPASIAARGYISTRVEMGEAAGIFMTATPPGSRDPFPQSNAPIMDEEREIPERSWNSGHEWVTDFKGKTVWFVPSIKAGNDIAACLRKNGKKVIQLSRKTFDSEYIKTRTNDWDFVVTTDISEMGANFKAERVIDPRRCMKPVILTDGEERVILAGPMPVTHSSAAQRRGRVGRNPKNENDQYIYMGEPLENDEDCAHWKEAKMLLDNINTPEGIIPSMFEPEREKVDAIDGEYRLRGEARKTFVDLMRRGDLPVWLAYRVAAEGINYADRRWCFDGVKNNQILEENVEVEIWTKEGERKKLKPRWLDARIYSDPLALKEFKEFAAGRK
Method notes: ALPHAscreen, inhibition of NS5-NS3 binding
Study conditions: read-out: I-OMe-AG538
Source text: ALPHAscreen, inhibition of NS5-NS3 binding on DENV-2 NS5 with DENV-2 NS3 (DENV NS5:DENV NS3)
Test readout: IC50 (µM)
// return numeric value only (unit: µM, not printed)

-- ask Report IC50 for COc1cc(C=C(C#N)C(=O)c2ccc(O)c(O)c2)cc(I)c1O [I-OMe-AG538] please.
-- reply 3
